Hi there, I'd appreciate the recorded IC50 for every entry that follows.
Molecular target: ATM (Homo sapiens)
Construct: detecting phosphorylation of Chk2 in a human non-small cell lung cancer cell line NCI-H460 (ATCC company); host or cells: NCI-H460 human non-small cell lung cancer cells
Assay: ATM inhibition test (phosphorylation of Chk2 generated by ionizing radiation, AlphaScreen SureFire)
Type: cell-based
Details: phosphorylated Chk2 in NCI-H460 cells, ionizing radiation 8Gy, 1 hour after test compound treatment; read-out: ATM inhibitory activity

Recorded IC50, per entry:
>>> result("CNc1ccc(CN2CCC(Nc3ccc4c(c3)Cc3cccc(-c5cc(N6CCOCC6)cc(=O)[nH]5)c3O4)CC2)cn1")
"100 to 500 nM"
>>> result("Nc1ncccc1CNc1ccc2c(c1)Sc1cccc(-c3cc(N4CCOCC4)cc(=O)[nH]3)c1O2")
"500 to 2000 nM"
>>> result("CC(Nc1ccc2c(c1)Sc1cccc(-c3cc(N4CCOCC4)cc(=O)[nH]3)c1S2)c1ncc(CO)cn1 (single isomer, unassigned) [Example 1-12-142-1]")
"< 100 nM"
>>> result("CC1CCCCN1CC(CO)Nc1ccc2c(c1)Sc1cccc(-c3cc(N4CCOCC4)cc(=O)[nH]3)c1S2 (single isomer, unassigned) [Example 1-37-7]")
"500 to 2000 nM"
>>> result("CC(CN1CCN(Cc2ccncc2)CC1)Nc1ccc2c(c1)Sc1cccc(-c3cc(N4CCOCC4)cc(=O)[nH]3)c1S2 (stereo not shown)")
"100 to 500 nM"

// each molecule listed below needs its IC50
1. Cc1cccc(C(CO)Nc2ccc3c(c2)Sc2cccc(-c4cc(N5CCOCC5)cc(=O)[nH]4)c2S3)n1 (stereo not shown) [Example 1-12-71]
2. Cc1cnc(C(CCN2CCC2)Nc2ccc3c(c2)Sc2cccc(-c4cc(N5CCOCC5)cc(=O)[nH]4)c2S3)cn1 (single isomer, unassigned)
3. CN(C)c1ncc(CNc2ccc3c(c2)Sc2cccc(-c4cc(N5CCOCC5)cc(=O)[nH]4)c2O3)cn1
4. O=c1cc(N2CCOCC2)cc(-c2cccc3c2Oc2ccccc2S3)[nH]1
5. Cc1cnc(C(C)Nc2ccc3c(c2)Sc2cccc(-c4cc(N5CCOCC5)cc(=O)[nH]4)c2S3)nc1 (stereo not shown) [Example 1-12-70]

Reply:
1. < 100 nM
2. < 100 nM
3. 100 to 500 nM
4. 500 to 2000 nM
5. < 100 nM

====

Hi there, I'd appreciate the recorded IC50 for every entry that follows.
Target: ATM (Homo sapiens, UniProt Q13315)
Construct: detecting phosphorylation of Chk2 in a human non-small cell lung cancer cell line NCI-H460 (ATCC company); host or cells: NCI-H460 human non-small cell lung cancer cells
Sequence (Q13315 whole entry): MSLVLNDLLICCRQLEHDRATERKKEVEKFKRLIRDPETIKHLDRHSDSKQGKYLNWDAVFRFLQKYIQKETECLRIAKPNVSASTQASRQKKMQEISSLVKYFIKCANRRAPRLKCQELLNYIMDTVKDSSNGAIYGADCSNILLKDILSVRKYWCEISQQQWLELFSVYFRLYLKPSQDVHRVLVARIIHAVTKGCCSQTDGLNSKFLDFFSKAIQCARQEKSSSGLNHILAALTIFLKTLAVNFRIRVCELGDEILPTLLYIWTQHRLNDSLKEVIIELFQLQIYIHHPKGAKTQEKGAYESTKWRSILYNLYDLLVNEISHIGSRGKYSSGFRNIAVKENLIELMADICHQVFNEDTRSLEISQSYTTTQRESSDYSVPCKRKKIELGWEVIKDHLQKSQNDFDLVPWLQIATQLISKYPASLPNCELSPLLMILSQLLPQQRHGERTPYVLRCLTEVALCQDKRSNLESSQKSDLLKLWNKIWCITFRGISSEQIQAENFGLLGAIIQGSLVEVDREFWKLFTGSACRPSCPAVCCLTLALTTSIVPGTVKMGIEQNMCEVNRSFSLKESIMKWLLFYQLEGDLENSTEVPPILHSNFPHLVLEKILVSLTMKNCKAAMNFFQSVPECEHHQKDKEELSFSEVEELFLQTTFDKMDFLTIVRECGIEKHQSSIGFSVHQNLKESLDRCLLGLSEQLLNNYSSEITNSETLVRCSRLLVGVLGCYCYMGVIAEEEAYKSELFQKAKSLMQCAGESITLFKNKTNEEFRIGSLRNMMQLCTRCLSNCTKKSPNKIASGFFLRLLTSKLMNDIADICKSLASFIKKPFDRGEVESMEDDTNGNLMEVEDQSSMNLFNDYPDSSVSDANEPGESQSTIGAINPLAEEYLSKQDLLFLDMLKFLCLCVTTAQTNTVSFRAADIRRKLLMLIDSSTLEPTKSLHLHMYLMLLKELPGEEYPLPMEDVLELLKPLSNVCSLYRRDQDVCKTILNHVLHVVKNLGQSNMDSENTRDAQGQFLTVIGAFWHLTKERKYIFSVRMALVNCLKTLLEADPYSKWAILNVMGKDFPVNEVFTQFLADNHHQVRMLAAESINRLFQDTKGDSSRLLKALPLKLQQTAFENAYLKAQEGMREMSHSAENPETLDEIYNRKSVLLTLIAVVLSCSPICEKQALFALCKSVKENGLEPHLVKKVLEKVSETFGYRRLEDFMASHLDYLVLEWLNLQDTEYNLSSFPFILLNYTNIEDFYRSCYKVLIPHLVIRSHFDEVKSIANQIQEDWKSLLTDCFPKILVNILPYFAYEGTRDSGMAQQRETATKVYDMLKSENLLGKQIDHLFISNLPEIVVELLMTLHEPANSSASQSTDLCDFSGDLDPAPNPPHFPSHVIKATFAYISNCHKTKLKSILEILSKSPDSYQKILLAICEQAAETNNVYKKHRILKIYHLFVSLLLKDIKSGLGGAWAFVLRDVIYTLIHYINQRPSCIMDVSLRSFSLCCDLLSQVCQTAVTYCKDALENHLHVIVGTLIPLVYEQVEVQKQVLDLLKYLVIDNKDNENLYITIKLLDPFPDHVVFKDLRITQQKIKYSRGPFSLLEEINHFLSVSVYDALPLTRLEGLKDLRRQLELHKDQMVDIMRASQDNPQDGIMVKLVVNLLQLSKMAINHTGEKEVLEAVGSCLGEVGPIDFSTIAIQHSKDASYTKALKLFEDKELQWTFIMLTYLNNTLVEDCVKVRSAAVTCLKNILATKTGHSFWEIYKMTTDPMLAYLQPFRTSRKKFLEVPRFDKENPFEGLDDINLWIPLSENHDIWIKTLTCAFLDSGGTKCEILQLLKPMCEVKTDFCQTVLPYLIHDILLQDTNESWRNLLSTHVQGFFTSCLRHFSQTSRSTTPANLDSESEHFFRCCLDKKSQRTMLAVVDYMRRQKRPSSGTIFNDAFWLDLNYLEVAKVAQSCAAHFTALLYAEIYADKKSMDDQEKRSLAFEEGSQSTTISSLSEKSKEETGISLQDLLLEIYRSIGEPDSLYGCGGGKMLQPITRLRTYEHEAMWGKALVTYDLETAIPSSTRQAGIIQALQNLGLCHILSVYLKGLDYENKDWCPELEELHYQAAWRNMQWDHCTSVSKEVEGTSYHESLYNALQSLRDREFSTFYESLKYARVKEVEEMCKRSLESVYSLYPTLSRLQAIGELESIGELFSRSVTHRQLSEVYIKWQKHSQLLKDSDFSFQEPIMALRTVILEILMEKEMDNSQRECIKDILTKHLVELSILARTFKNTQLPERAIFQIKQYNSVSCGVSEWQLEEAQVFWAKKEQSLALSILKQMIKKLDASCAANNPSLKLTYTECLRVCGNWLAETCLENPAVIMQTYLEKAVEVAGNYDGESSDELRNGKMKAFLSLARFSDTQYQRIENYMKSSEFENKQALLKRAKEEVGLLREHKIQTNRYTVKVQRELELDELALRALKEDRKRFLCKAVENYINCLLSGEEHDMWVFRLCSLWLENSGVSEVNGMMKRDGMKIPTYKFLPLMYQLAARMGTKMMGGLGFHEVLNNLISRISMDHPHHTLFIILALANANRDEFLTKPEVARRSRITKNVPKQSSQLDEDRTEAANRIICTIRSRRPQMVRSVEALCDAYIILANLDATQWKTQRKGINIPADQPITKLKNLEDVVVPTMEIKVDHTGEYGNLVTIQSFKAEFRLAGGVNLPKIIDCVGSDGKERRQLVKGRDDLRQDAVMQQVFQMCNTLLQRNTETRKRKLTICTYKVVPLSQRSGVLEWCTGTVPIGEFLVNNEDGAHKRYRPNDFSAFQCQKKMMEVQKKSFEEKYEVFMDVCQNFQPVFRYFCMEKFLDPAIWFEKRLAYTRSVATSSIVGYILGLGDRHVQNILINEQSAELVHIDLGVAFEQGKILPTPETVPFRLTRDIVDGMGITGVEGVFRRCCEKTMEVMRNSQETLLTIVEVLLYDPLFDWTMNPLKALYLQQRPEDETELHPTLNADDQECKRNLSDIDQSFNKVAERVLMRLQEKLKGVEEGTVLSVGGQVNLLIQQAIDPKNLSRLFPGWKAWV
Assay: ATM inhibition test (phosphorylation of Chk2 generated by ionizing radiation, AlphaScreen SureFire)
Format: cell-based
Settings: phosphorylated Chk2 in NCI-H460 cells, ionizing radiation 8Gy, 1 hour after test compound treatment; read-out: ATM inhibitory activity

Recorded IC50, per entry:
>>> result("CC(CN1CCOCC1)Nc1ccc2c(c1)Sc1cccc(-c3cc(N4CCOCC4)cc(=O)[nH]3)c1S2 (single isomer, unassigned) [Example 1-13-2-2]")
"< 0.1 µM"
>>> result("Cc1ccc(C(CCN2CCN(C)CC2)Nc2ccc3c(c2)Sc2cccc(-c4cc(N5CCOCC5)cc(=O)[nH]4)c2S3)nc1 (single isomer, unassigned)")
"< 0.1 µM"

Let's switch to this compound now.
Task item: Look at this compound and give its reported IC50. O=c1cc(N2CCOCC2)cc(-c2cccc3c2Sc2ccc(NC4CCN(C5CCCC5)C4)cc2S3)[nH]1 (stereo not drawn)
Reply: 0.1 to 0.5 µM
